# Test system: RARg:RXRa (NR concentration 270 nM, RXRa partner concentration 90 nM)
# Protocol Description: PBM binding z-score (relative to random genomic background probes); higher = stronger binding; sequences stand for … in GC…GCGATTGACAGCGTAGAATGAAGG
Quantity Measured: PBM binding z-score

* TGAATGTGGTTAAAGATCAGGGAACGTGGCGTCG | 0.0115
* TAGCCTATGTCATTCAGGGGCCAGTATAGAAAGC | 1.65
* CCGAGTAGGTTATGGGGCATTCACGCAACGGTGA | 0.542
* ATCACTAGGTAAAGTTCAGTGAAAGATCGATAGA | 2.32
* ACTATTAGTTGTCTTAGGGCAACCGATACGACGC | 0.149
* GCAGACAGGTGAAACGCAGGTACCTCAGGGTGGC | 0.0657
* ATCGAAAGGTCGAAGGTGAGTAGACCCACCCGAA | 4.35
* TCATGTAGGTAAACAGGTGAAAGTCCGTAAGTTA | 0.133
* TCTAGTTGGTCACGGAGGCCACACACGACGGGTA | 1.65
* CGTCCAAGGTCAAAGCTCAGTGAAGAGATGACGG | 5.9
* TCAGACAGGTGAAGGTAAATCAGGTACGCAGTCG | 0.61
* TCTTGTAGATCAAGTAGGTTAAGAAAGCCTGAGT | 0.0366
* CCTCAGAGGACAACAGGAGGTCAGAGCTGCCAGA | 4.09
* GTACCAAGGTGAATAGATCGTTGATGAGTAGGCG | 0.664
* ATCTCTAGGTAAGACTCAGTTCAGTGATGAACGC | 0.588
* ACAGAGAGGTGAGTGAAGGTAACTCAGCTGGACG | 0.89
* ACAGACAGGTGAGAGAAGGTAACTCAGCTGGACG | 0.137
* TCAGACAGGTGAAGGTAACTCAGGTACGCAGTCG | 0.581
* TCTATTAGTTGAAGGGCAATCGACGAGTCCGTTT | 0.355
* TTACCAAGGTGAGCTGAGGTCGTTGAGCCAACTC | 1.39
* CGTCCAAGGTCAGAGAGGTCAGCGAATGCCGAGT | 6.82
* CCTTACGGGTCACTCCAGGTTATAGCTTCGGAGT | 4.36
* CGTCAAACTTCAAGGTAACGTAACAGAAAGCAGC | 0.163
* ATCTCTAGGTAACAAGTTCAGTTAAAGAGAGGAC | 1.37
* GATACAGGTTCAGCTAGAGGCCAGAGTATGGAAA | 4.48
* CCAGACAGGGGAGAAGGTAACTCAGCCTCGATTA | -0.296
* ATCTCTAGGTAAAGATAGCTCAGTGAATGCAAAT | 0.141
* CAAACTAGGTCAAGGTTAAAGTCGGTTTGTGCCA | 4.29
* ATATGTAAGTTAAGGGTCATTCAGGTTGGTTCGC | 3.97
* ACTTACGGGTCAACGAGGTTATAGCACGCGTATA | 5.57
* GGAACGAGGGCAAGTTGGTAGCAGAGTTTGATGG | 1.27
* AGAATGAGGTTATAGGTAGATCAGGGAAGAAAGT | 1.63
* GGAACGAGGGCAAGTTGATAACAGAGTTTGATGG | 1.6
* TCATATAGGTAAAGGTGAATGTCGAACGATATGA | 1.37
